Ref: PubChem BioAssay (NCI)

Let's look at some compounds and their measured growth.
Tested on: TK-10 renal
Assay: NCI-60 one-dose screen, 48 h (100 = growth as untreated, 0 = no growth, -100 = all killed)
Settings: 10 µM unless noted
About 83,000 compounds went through this panel and 20% of them were active in at least one assay; those are over-represented in the sample as a whole.

COMPOUND: O=C(CSc1nc2c(c(=O)[nH]1)CCCC2)Nc1ccccc1C(=O)O
growth [%]: 106

COMPOUND: Cc1nc2sccn2c1-c1nnc(SCc2ccccc2)o1
growth [%]: 110

COMPOUND: Nc1cc(-c2c[nH]c3ccc(Cl)cc23)nc2cc(-c3c[nH]c4ccccc34)nn12
growth [%]: -7.78

COMPOUND: CNS(=O)(=O)N1CCc2c(Br)c3c(c(OC)c2C1CCc1ccccc1)OCO3 (centres undefined)
growth [%]: -0.435

COMPOUND: COc1ccc(-c2nc3ccc(-c4nnc(SCc5ccccc5)o4)cc3[nH]2)cc1OC
growth [%]: 23

COMPOUND: N#C/C(=C1/C(=O)Nc2ccccc21)c1nnc(NC(=O)c2ccc(-n3c(=O)[nH]c4ccccc4c3=O)cc2)s1
growth [%]: 84.3

COMPOUND: O=C(CSc1nnc(-c2ccc(-c3nc4ccc(Cl)cc4[nH]3)cc2)o1)Nc1ccc(Br)cc1
growth [%]: 75.9

COMPOUND: COC(=O)c1ccc(-c2c(-c3ccccc3)c(F)c3oc(C(=O)OC)c(N)c3c2-c2ccccc2)cc1
growth [%]: 114

COMPOUND: Cc1ccc(C(=O)Nc2cc(-c3ccncc3)cc(C(F)(F)F)c2)cc1C#Cc1cnc2cccnn12
growth [%]: 63.7
